- System: mice
- experimentNotes: Formalin test, early phase (topical ointment)
- Assay type: in vivo
- protocolConditions: 20 microliter 2 percent formalin s.c., 2 percent w/w ointment topically 5 minutes before, 0 to 5 min (early phase), mean±SEM
Counter-ions that a name gives are not always drawn.
propertyName: Licking time

| molecule | measValue |
| --- | --- |
| Cc1ccc(C(C)C)c(OC(=O)CCCN)c1.Cl [Compound 2] | 52.2 ± 6.6 s |
| COc1ccccc1OC(=O)CCCN.Cl [Compound 4] | 47.6 ± 9.8 s |
| Cc1ccc(C(C)C)cc1OC(=O)CCCN.Cl [Compound 3] | 31.1 ± 8.3 s |
| CCOC(=O)c1ccc(N)cc1 [Benzocaine, benzocaine, reference compound] | 36.3 ± 2.4 s |
| CC(C)[C@@H]1CC[C@@H](C)C[C@H]1OC(=O)CCCN [Compound 1, hydrochloride] | 30.3 ± 7.4 s |
